Tested on: NK-YS (IL-2 2.5 ng/mL)
Experiment: percent inhibition of viability; higher = more inhibition
Details: 72 h; 1 nM
measure.name: percent inhibition of viability (%)

1. CC(C)(C#N)c1cc(Cn2cncn2)cc(C(C)(C)C#N)c1 [Anastrozole] (max concentration tested 10000 nM) | -0.21
2. C[C@]12C=CC(=O)C=C1CC[C@@H]1[C@@H]2C(=O)C[C@@]2(C)[C@H]1CC[C@]2(O)C(=O)CO [Prednisone] (max concentration tested 10000 nM) | 1.7
3. C#Cc1cccc(Nc2ncnc3cc(OCCOC)c(OCCOC)cc23)c1 [Erlotinib] (max concentration tested 10000 nM) | 1.58
4. CS(=O)(=O)c1ccc(C2=C(c3ccccc3)C(=O)OC2)cc1 [Rofecoxib] (max concentration tested 10000 nM) | 3.55
5. c1ccc([C@H]2CN3CCSC3=N2)cc1 [Levamisole] (max concentration tested 10000 nM) | -2.25
6. CC(C)CC(=O)Nc1n[nH]c2c1CN(C(=O)C1CCN(C)CC1)C2(C)C (max concentration tested 10000 nM) | -0.22

----------
System: normal NK cells expanded with K562-aAPC
Assay: percent inhibition of viability; higher = more inhibition
Conditions: 72 h; IL-2 2.5 ng/mL; 10000 nM
Consider the reported percent inhibition of viability of an entry and match it to a band in 0 (below 20%), 1 (20% to below 80%), 2 (80% or more)

1. c1cc(CN2CCCNCCNCCCNCC2)ccc1CN1CCCNCCNCCCNCC1 [Plerixafor] (max concentration tested 10000 nM) | 0
2. Cc1cn(-c2cc(NC(=O)c3ccc(C)c(Nc4nccc(-c5cccnc5)n4)c3)cc(C(F)(F)F)c2)cn1 [Nilotinib] (max concentration tested 10000 nM) | 1
3. Cc1cc(Nc2cc(N3CCN(C)CC3)nc(Sc3ccc(NC(=O)C4CC4)cc3)n2)n[nH]1 [Tozasertib] (max concentration tested 10000 nM) | 1
4. N.N.[Cl][Pt][Cl] [Cisplatin] (max concentration tested 100000 nM) | 1
5. Cc1cc(OCc2nnc(SC3CCCC3)n2-c2cccnc2)ccc1-c1ccc(S(C)(=O)=O)cc1 [NMS-873] (max concentration tested 10000 nM) | 2
6. Cc1ncc(-c2ccnc(Nc3ccc(S(C)(=O)=O)cc3)n2)n1C(C)C [AZD-5438] (max concentration tested 10000 nM) | 2
7. O=C(CCBr)N1CCN(C(=O)CCBr)CC1 [Pipobroman] (max concentration tested 10000 nM) | 0
8. COc1cc(Nc2c(C#N)cnc3cc(OCCCN4CCN(C)CC4)c(OC)cc23)c(Cl)cc1Cl [Bosutinib] (max concentration tested 10000 nM) | 2
9. Nc1ncnc2c1c(COc1cccc(Cl)c1)nn2C1CCOCC1 (max concentration tested 10000 nM) | 0
10. O[C@H]1CC[C@H](Nc2ncc3nc(Nc4c(F)cc(F)cc4F)n([C@H]4CCOC4)c3n2)CC1 [Tanzisertib] (max concentration tested 10000 nM) | 0
11. Cn1nnc2c(C(N)=O)ncn2c1=O [Temozolomide] (max concentration tested 100000 nM) | 0

----------
Examples of molecules with documented percent inhibition of viability follow.
System: normal primary NK cells, pool 1 (3 donors) (IL-2 2.5 ng/mL)
Assay: percent inhibition of viability; higher = more inhibition
Settings: 72 h; 10000 nM
measure.name: percent inhibition of viability (%)

1. Cc1c(NC(=O)OC[C@@H]2COCCN2)cn2ncnc(Nc3ccc4c(cnn4Cc4cccc(F)c4)c3)c12 (max concentration tested 10000 nM) | 34.3
2. CC(C)C[C@H](NC(=O)[C@@H](COC(C)(C)C)NC(=O)[C@H](Cc1ccc(O)cc1)NC(=O)[C@H](CO)NC(=O)[C@H](Cc1c[nH]c2ccccc12)NC(=O)[C@H](Cc1cnc[nH]1)NC(=O)[C@@H]1CCC(=O)N1)C(=O)N[C@@H](CCCNC(=N)N)C(=O)N1CCC[C@H]1C(=O)NNC(N)=O [Goserelin] (max concentration tested 10000 nM) | -0.05
3. Cc1nc(N)sc1-c1ccnc(Nc2ccc(N3CCOCC3)cc2)n1 [CYC-116] (max concentration tested 10000 nM) | 71.7
4. O=C(CCBr)N1CCN(C(=O)CCBr)CC1 [Pipobroman] (max concentration tested 10000 nM) | 2.49
5. CC(C)N(CCCNC(=O)Nc1ccc(C(C)(C)C)cc1)C[C@H]1O[C@@H](n2cc(Br)c3c(N)ncnc32)[C@H](O)[C@@H]1O [SGC0946] (max concentration tested 10000 nM) | 19
6. CNc1nc(-c2ccc3c(N)n[nH]c3c2)cc(N2C[C@@H](C(=O)NC3CCCCC3)CC[C@H]2C)n1 (max concentration tested 10000 nM) | 14.9
7. CN(C)C[C@@H]1CCn2cc(c3ccccc32)C2=C(C(=O)NC2=O)c2cn(c3ccccc23)CCO1 [Ruboxistaurin] (max concentration tested 10000 nM) | 99.8
8. Cc1c(C(=O)Nc2ccc(N3C[C@@H](C)O[C@@H](C)C3)nc2)cccc1-c1ccc(OC(F)(F)F)cc1 [Sonidegib] (max concentration tested 10000 nM) | -0.78
9. O=C(c1cc(Cc2n[nH]c(=O)c3ccccc23)ccc1F)N1CCN(C(=O)C2CC2)CC1 [Olaparib] (max concentration tested 10000 nM) | 8.24
10. C[C@@H]1CN(Cc2ccc(F)cc2)[C@@H](C)CN1C(=O)c1cc2c(C(=O)C(=O)N(C)C)cn(C)c2cc1Cl [Talmapimod] (max concentration tested 10000 nM) | 2.92
11. COc1cc2c(cc1-c1c(C)noc1C)ncc1[nH]c(=O)n([C@H](C)c3ccccn3)c12 [I-BET151] (max concentration tested 10000 nM) | 86.3
12. Cc1ncc(-c2ccnc(Nc3ccc(S(C)(=O)=O)cc3)n2)n1C(C)C [AZD-5438] (max concentration tested 10000 nM) | 98
13. CCCCCOC(=O)Nc1nc(=O)n([C@@H]2O[C@H](C)[C@@H](O)[C@H]2O)cc1F [Capecitabine] (max concentration tested 10000 nM) | -5.4
14. Cc1c(Cn2c(C)nc3c(C(=O)O)cc(N4CCOCC4)cc32)cccc1C(F)(F)F (max concentration tested 10000 nM) | 4.77
15. c1ccc([C@H]2CN3CCSC3=N2)cc1 [Levamisole] (max concentration tested 10000 nM) | 2.81
16. CC(C)C(=O)Nc1ccc([N+](=O)[O-])c(C(F)(F)F)c1 [Flutamide] (max concentration tested 10000 nM) | -4.01
17. CC(C)(C#N)c1cc(Cn2cncn2)cc(C(C)(C)C#N)c1 [Anastrozole] (max concentration tested 10000 nM) | -12.4
18. Nc1cccc2c1CN(C1CCC(=O)NC1=O)C2=O (stereo not given) [Lenalidomide] (max concentration tested 100000 nM) | 0.68
19. O=NN(CCCl)C(=O)NC1CCCCC1 [Lomustine] (max concentration tested 10000 nM) | -0.06
20. CNC(=O)c1nn(C)c2c1C(C)(C)Cc1cnc(Nc3ccc(N4CCN(C)CC4)cc3)nc1-2 [Milciclib] (max concentration tested 10000 nM) | 94.1
21. CNNCc1ccc(C(=O)NC(C)C)cc1 [Procarbazine] (max concentration tested 10000 nM) | -5.09
22. CS(=O)(=O)c1ccc(C2=C(c3ccccc3)C(=O)OC2)cc1 [Rofecoxib] (max concentration tested 10000 nM) | 0.6
23. O[C@H]1CC[C@H](Nc2ncc3nc(Nc4c(F)cc(F)cc4F)n([C@H]4CCOC4)c3n2)CC1 [Tanzisertib] (max concentration tested 10000 nM) | 12.8
24. Cn1cncc1[C@@](N)(c1ccc(Cl)cc1)c1ccc2c(c1)c(-c1cccc(Cl)c1)cc(=O)n2C [Tipifarnib] (max concentration tested 10000 nM) | 96.1
25. O=c1ncn2nc(Sc3ccc(F)cc3F)ccc2c1-c1c(Cl)cccc1Cl [VX 745] (max concentration tested 10000 nM) | 23.3

----------
System: KAI3 (IL-2 2.5 ng/mL)
Test: percent inhibition of viability; higher = more inhibition
Details: 72 h; 1000 nM
Threshold 30%. percent inhibition of viability below it: yes. percent inhibition of viability at it or above: no.

1. C[C@@H]1CN(Cc2ccc(F)cc2)[C@@H](C)CN1C(=O)c1cc2c(C(=O)C(=O)N(C)C)cn(C)c2cc1Cl [Talmapimod] (max concentration tested 10000 nM) | yes
2. COc1cc2ncnc(Nc3ccc(F)c(Cl)c3)c2cc1NC(=O)/C=C/CN1CCCCC1 [Dacomitinib] (max concentration tested 1000 nM) | no
3. CN1CCc2c(c3ccccc3n2Cc2ccc(C(=O)NO)cc2)C1 [Tubastatin A] (max concentration tested 10000 nM) | no
4. COc1cc(Nc2c(C#N)cnc3cc(OCCCN4CCN(C)CC4)c(OC)cc23)c(Cl)cc1Cl [Bosutinib] (max concentration tested 10000 nM) | no
5. CNC(=O)c1cc(Oc2ccc(NC(=O)Nc3ccc(Cl)c(C(F)(F)F)c3)cc2)ccn1 [Sorafenib] (max concentration tested 1000 nM) | yes
6. CNC(=O)c1ccc(C)c(-n2c(C)cc(OCc3ccc(F)cc3F)c(Br)c2=O)c1 (max concentration tested 1000 nM) | no
7. COc1cc2c(Oc3ccc(NC(=O)C4(C(=O)Nc5ccc(F)cc5)CC4)cc3F)ccnc2cc1OCCCN1CCOCC1 [Foretinib] (max concentration tested 1000 nM) | no
8. Nc1cccc2c1C(=O)N(C1CCC(=O)NC1=O)C2=O (configuration not stated) [Pomalidomide] (max concentration tested 10000 nM) | yes
9. N[C@@H]1CCCN(c2c(/C=C3\SC(=O)NC3=O)cccc2-c2ccccc2)C1 [AZD1208] (max concentration tested 10000 nM) | yes
10. Cc1ncc(-c2ccnc(Nc3ccc(S(C)(=O)=O)cc3)n2)n1C(C)C [AZD-5438] (max concentration tested 10000 nM) | no
11. CC(C)C(=O)Nc1ccc([N+](=O)[O-])c(C(F)(F)F)c1 [Flutamide] (max concentration tested 10000 nM) | yes
12. CC[C@@H]1C(=O)N(C)c2cnc(Nc3ccc(C(=O)N[C@H]4CC[C@H](N5CCN(CC6CC6)CC5)CC4)cc3OC)nc2N1C(C)C [Volasertib] (max concentration tested 1000 nM) | no

The measurements presented in this section are drawn from the supplement of paper PMC5908809.
